molecular target: LBD of LXRβ (Homo sapiens, UniProt P55055); construct: purchased Thermo Fisher Scientific; assay: LanthaScreen TR-FRET LXRβ coactivator assay (LXR binding assay); type: biochemical
Sequence (P55055 222-460 limits assumed): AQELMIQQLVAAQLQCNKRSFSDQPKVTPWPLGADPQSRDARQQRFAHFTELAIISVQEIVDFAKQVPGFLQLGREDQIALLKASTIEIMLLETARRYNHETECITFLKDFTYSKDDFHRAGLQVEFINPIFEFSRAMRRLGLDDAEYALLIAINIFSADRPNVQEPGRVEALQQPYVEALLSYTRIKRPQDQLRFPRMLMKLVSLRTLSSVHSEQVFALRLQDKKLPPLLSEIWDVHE
readout: EC50

>>> print(df.to_string())
                                   compound  readout  experimental_result
0  C=C1CC[C@H](O)C/C1=C/C=C1\CCC[C@]2(C)[C@@H]([C@H](C)CCCC(C)C)CC[C@@H]12 [D3, Vitamin D3, reference compound]     EC50               890 nM
